test system: NCI/ADR-RES ovarian; experiment: NCI-60 one-dose screen, 48 h; conditions: 10 µM unless noted
The panel holds about 83,000 compounds, 20% with a hit somewhere; the sample as a whole holds those more often. Active and inactive are the calls of the source. How the source made its calls: active means growth percent below 10; inactive means the rest.
Hi there, use one of these labels in your reply, thanks! yes (1) = active, no (0) = inactive

Example cases with answers are listed next.
compound=C=C1C(=O)O[C@H]2[C@H]1CC/C(COC(=O)c1cccc3ccccc13)=C\CC[C@@]1(C)O[C@@H]21 assigned_class="yes (1)"
compound=COc1ccc(-c2cnc(-c3ccc(F)cc3)[nH]2)cc1 assigned_class="no (0)"
compound=COC(=O)c1oc2c(C(=O)/C=C/c3ccc(OC)cc3)c(OCCN3CCOCC3)ccc2c1C assigned_class="yes (1)"
compound=Nc1ncc(-c2ccc3ncnc(Nc4cncc(Cl)c4)c3c2)cn1 assigned_class="no (0)"
compound="COc1cc([C@@H]2c3cc4c(cc3C(OC3O[C@@H]5COC(C)O[C@H]5[C@H](O)[C@H]3O)C3COC(=O)[C@@H]32)OCO4)cc(OC)c1O (stereo not given in full)" assigned_class="no (0)"
compound="COc1ccc(C2CC(c3cc(Cl)c(C)cc3OC)=NN2c2ccc(S(N)(=O)=O)cc2)cc1OC (stereo not given)" assigned_class="no (0)"

How did this test come out for O=C1OC(c2ccc(-c3ccccc3)cc2)=C/C1=C/C=C/c1ccccc1 ?
no (0)

How did this test come out for CC1CCC(C(C)C)C(NN)C1 (stereo not given) ?
no (0)

How did this test come out for CCn1c(SC)nnc1-c1cc2c([nH]c3ccccc32)c(-c2cccc(O)c2)n1 ?
yes (1)

How did this test come out for O=c1c(-c2ccc3c(c2)OCO3)coc2c(CO)c(O)ccc12 ?
no (0)
